Assay: Metabolic stability in rat liver microsomes (RLMs)
Details: rat, microsomes, Metabolic stability: RLM CL (ul/min/mg), RLMs; mean and SD, three measurements
Measure: microsomal CLint (µL/min/mg)
Please reply with the bare figure in µL/min/mg and do not write the unit itself.

Example compounds with recorded microsomal CLint:
>>> measured_result("O=C1C[C@H]2CCCN2C(=O)[C@H](Cc2ccccc2)NC(=O)[C@@H](NC(=O)c2ccc(Cl)s2)CCSCc2cccc(n2)CSCCN1 [compound 33]")
61
>>> measured_result("O=C1CSCCNC(=O)c2ccc(cc2)CNC(=O)[C@@H](NC(=O)C2CCS(=O)(=O)CC2)CCNC(=O)CCSC1 [compound 6]")
16.6
>>> measured_result("O=C1C[C@H]2CCCN2C(=O)[C@H](Cc2ccccc2)NC(=O)[C@@H](NC(=O)c2ccc(Cl)s2)CCCSCc2cccc(n2)CSCCN1 [compound 35]")
86
>>> measured_result("C[C@@H]1NC(=O)[C@@H](NC(=O)c2ccc(Cl)s2)CSCc2cccc(n2)CSCCNC(=O)[C@H]2CCCN(C2)C1=O [compound 30]")
72
>>> measured_result("C[C@@H]1NC(=O)[C@@H](NC(=O)c2ccc(Cl)s2)CNC(=O)CCSCc2cccc(n2)CSCCNC1=O [compound 18]")
103

We next turn to a different compound, shown below.
Query block: Quick one: microsomal CLint for O=C1C[C@H]2CCCN2C(=O)[C@H](Cc2ccccc2)NC(=O)[C@@H](NC(=O)c2ccc(Cl)cc2)CCC=CCCCCN1 (mixture of isomers) [peptide 46] ?
Result block: 43

* * *

Molecular target: rat α-thrombin (Rattus norvegicus)
Construct: rat α-thrombin (Molecular Innovations) were used at final concentrations of 2 nM and 3 nM; purchased Molecular Innovations
Experiment: Protease inhibition, Ki for rat α-thrombin (fluorogenic substrate Z-Gly-Gly-Arg-AMC)
Format: biochemical
Conditions: average of R1-R3; read-out: Rat alpha thrombin inhibition, Ki Average
Listed compounds paired with reported Ki
Please reply with the bare figure in nM and do not write the unit itself.

Query block: Quick one: Ki for O=C1C[C@H]2CCCN2C(=O)[C@H](Cc2ccccc2)NC(=O)[C@@H](NC(=O)c2ccc(Cl)s2)CCCC=CCCCN1 ?
Result block: 104

Query block: Quick one: Ki for O=C1C[C@H]2CCCN2C(=O)[C@H](Cc2ccccc2)NC(=O)[C@@H](NC(=O)c2ccc(Cl)s2)CC=CCCN1 ?
Result block: 5050

Query block: Quick one: Ki for O=C1C[C@H]2CCCN2C(=O)[C@H](Cc2ccccc2)NC(=O)[C@@H](NC(=O)c2ccc(Cl)s2)CCC=CCCCN1 ?
Result block: 180

* * *

Experiment: Passive artificial membrane permeability (PAMPA)
Settings: PAMPA; replicate R3; TIC of top well sample relative to sample at theoretical equilibrium
Measure: Permeability% R3 (%)
Please reply with the bare figure in % and do not write the unit itself.

>>> measured_result("O=C1CC2CCN(CC2)C(=O)[C@H](Cc2ccccc2)NC(=O)[C@@H](NC(=O)c2ccc(Cl)s2)CSCCS(=O)(=O)CCSCCN1 [compound 13]")
1.45
>>> measured_result("O=C(N[C@H]1CSCCS(=O)(=O)CCSCCNC(=O)C2(CC2)CNC(=O)[C@H](Cc2ccccc2)NC1=O)c1ccc(Cl)s1 [compound 16]")
7.66

Query block: Quick one: Permeability% R3 for O=C1CC2CCN(CC2)C(=O)[C@H](Cc2ccccc2)NC(=O)[C@@H](NC(=O)c2ccc(Cl)s2)CSCc2cccc(n2)CSCCN1 [compound 15] ?
Result block: 22.19

Query block: Quick one: Permeability% R3 for C[C@@H]1NC(=O)[C@@H](NC(=O)c2ccc(Cl)s2)CSCc2cccc(n2)CSCCNC(=O)c2ccc(cc2)CNC1=O [compound 26] ?
Result block: 5.45

* * *

Target: porcine pepsin (Sus scrofa, UniProt P00791)
Construct: 0.32 g of porcine pepsin (Sigma-Aldrich, P7125) was dissolved under gentle agitation; purchased Sigma-Aldrich P7125
Sequence (P00791 60-385): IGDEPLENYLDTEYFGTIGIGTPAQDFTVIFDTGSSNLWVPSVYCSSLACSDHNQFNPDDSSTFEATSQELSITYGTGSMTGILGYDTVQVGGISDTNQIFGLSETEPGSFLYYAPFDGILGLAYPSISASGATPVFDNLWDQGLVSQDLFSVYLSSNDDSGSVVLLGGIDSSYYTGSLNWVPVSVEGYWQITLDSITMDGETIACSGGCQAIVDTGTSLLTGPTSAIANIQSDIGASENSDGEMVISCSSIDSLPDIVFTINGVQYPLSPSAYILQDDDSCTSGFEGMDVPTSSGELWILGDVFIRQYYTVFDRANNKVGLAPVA
Experiment: Peptide stability in simulated gastric fluid (SGF)
Type: in vitro ADME
Conditions: simulated gi fluid; 8 h, 37 °C, pH 1.2; read-out: Proteolytic stability: SGF (8 h) % remaining
Measure: remaining at 8 h
Could you give the number and then its unit, please?

Example compounds with recorded remaining at 8 h:
>>> measured_result("O=C1CCSCc2ccc(cc2)CSCCNC(=O)[C@H](CNC(=O)c2ccc(Cl)s2)NC(=O)[C@H](Cc2ccccn2)N1 [compound 21]")
"97%"
>>> measured_result("O=C1C[C@H]2CCCN2C(=O)[C@H](Cc2ccccc2)NC(=O)[C@@H](NC(=O)c2ccc(Cl)s2)CCCSCc2cccc(n2)CSCCN1 [compound 35]")
"99%"
>>> measured_result("CC(C)[C@@H]1NC(=O)[C@@H](NC(=O)c2ccc(Cl)s2)CNC(=O)CCSCc2cccc(n2)CSCCNC1=O [compound 19]")
"95%"
>>> measured_result("O=C1CC2CCN(CC2)C(=O)[C@H](Cc2ccccc2)NC(=O)[C@@H](NC(=O)c2ccc(Cl)s2)CSCc2cccc(n2)CSCCN1 [compound 15]")
"99%"
>>> measured_result("O=C1CC2CCN(CC2)C(=O)[C@H](Cc2ccccc2)NC(=O)[C@@H](NC(=O)c2ccc(Cl)s2)CSCCS(=O)(=O)CCSCCN1 [compound 13]")
"104%"

We next turn to a different compound, shown below.
Query block: Quick one: remaining at 8 h for O=C1NCCSCc2cccc(n2)CSCCC(=O)N2CCC[C@H]2C(=O)N2CCN(C(=O)c3ccc(Cl)s3)CC12 (stereo partly drawn) [compound 23] ?
Result block: 99%

* * *

Assay: Metabolic stability in rat liver microsomes (RLMs)
Settings: rat, microsomes, Half-life (T1/2) in RLMs, 10 μM peptide, 37 °C; mean and s.d. of three measurements
Measure: half-life (min)
Please reply with the bare figure in min and do not write the unit itself.

>>> measured_result("O=C1CC2CCN(CC2)C(=O)[C@@H](NC(=O)c2cc(F)cc(F)c2)CSCc2ccc(cc2)CSCCNC(=O)[C@H](Cc2ccccc2)N1 [peptide 1]")
11
>>> measured_result("COc1ccc(CC(=O)N[C@H]2Cc3ccc(cc3)CNC(=O)c3cccc(c3)CNC(=O)CCSCc3ccc(cc3)CSCCNC2=O)cc1OC [peptide 3]")
16.9
>>> measured_result("NC(=O)NCCC[C@@H]1NC(=O)C2CN(CCN2C(=O)C2CCCN2S(=O)(=O)c2ccc(F)cc2)C(=O)CCSC/C=C/CSCCNC1=O (stereo partly drawn) [peptide 4]")
34

Query block: Quick one: half-life for CN1CCC(=O)NCCSCC(=O)CSC[C@H](NC(=O)c2cccc(C(F)(F)F)c2)C(=O)N2CCC[C@@H](C2)C1=O ?
Result block: 37

Query block: Quick one: half-life for O=C1C[C@@H]2CCCN2C(=O)[C@@H](NC(=O)c2cccc(Cl)c2)CSCc2cccc(n2)CSCCNC(=O)[C@H](Cc2c[nH]c3ccccc23)N1 ?
Result block: 31

Query block: Quick one: half-life for Cn1nccc1C(=O)N1CCC2(CC1)NC(=O)[C@H](CC1CCCCC1)NC(=O)CCSCc1cccc(n1)CSCCNC2=O ?
Result block: 22

* * *

Experiment: Metabolic stability in rat liver microsomes (RLMs)
Conditions: rat, rat liver microsomes, pH 7.4, Metabolic stability: Half life T1/2 (min), RLMs; mean and SD, three measurements
Square brackets hold non-standard residues; d marks the D form. Peptide text beside a SMILES is read from it. NMeY = CN[C@@H](Cc1ccc(O)cc1)C(=O)O; NMeL = CN[C@@H](CC(C)C)C(=O)O; dNMeL = CN[C@H](CC(C)C)C(=O)O
Measure: half-life at 10 μM (min)
Please reply with the bare figure in min and do not write the unit itself.

>>> measured_result("CC(C)C[C@@H]1NC(=O)[C@H](Cc2ccc(O)cc2)N(C)C(=O)[C@H]2CCCN2C(=O)[C@H](CC(C)C)NC(=O)[C@H](CC(C)C)N(C)C(=O)[C@@H](CC(C)C)N(C)C1=O [1NMe3, reference compound] (cyclo(L[dNMeL][NMeL]L[dP][NMeY]))")
193

We next turn to a different compound, shown below.
Query block: Quick one: half-life at 10 μM for COc1ccc([C@@H]2Sc3ccccc3N(CCN(C)C)C(=O)[C@@H]2OC(C)=O)cc1 [Diltiazem, diltiazem, reference compound] ?
Result block: 13.4

* * *

Experiment: Metabolic stability in rat liver microsomes (RLMs)
Settings: rat liver microsomes, 30 min, replicate R1
Listed molecules paired with reported TIC value of compound, 30 min, R1

>>> measured_result("O=C1C[C@H]2CCCN2C(=O)[C@H](Cc2ccccc2)NC(=O)[C@@H](NC(=O)c2ccc(Cl)s2)CSC/C=C/CSCCN1 [peptide 32]")
0
>>> measured_result("O=C1CSCCC[C@H](NC(=O)c2ccc(Cl)s2)C(=O)N[C@@H](Cc2ccccc2)C(=O)N2CCC[C@@H]2CC(=O)NCCSC1 [compound 37]")
2932536
>>> measured_result("O=C1C[C@H]2CCCN2C(=O)[C@H](Cc2ccccc2)NC(=O)[C@@H](NC(=O)c2ccc(Cl)s2)CCSC/C=C/CSCCN1 [compound 34]")
4320756
>>> measured_result("O=C1C[C@H]2CCCN2C(=O)[C@H](Cc2ccccc2)NC(=O)[C@@H](NC(=O)c2ccc(Cl)s2)CCCSCc2cccc(n2)CSCCN1 [compound 35]")
7192264

Query block: Quick one: TIC value of compound, 30 min, R1 for O=C1C[C@H]2CCCN2C(=O)[C@H](Cc2ccccc2)NC(=O)[C@@H](NC(=O)c2ccc(Cl)s2)CCSCc2cccc(n2)CSCCN1 [compound 33] ?
Result block: 9967302

Query block: Quick one: TIC value of compound, 30 min, R1 for O=C1C[C@H]2CCCN2C(=O)[C@H](Cc2ccccc2)NC(=O)[C@@H](NC(=O)c2ccc(Cl)s2)CSCc2cccc(n2)CSCCN1 [compound 31] ?
Result block: 10634659

Query block: Quick one: TIC value of compound, 30 min, R1 for O=C1C[C@H]2CCCN2C(=O)[C@H](Cc2ccccc2)NC(=O)[C@@H](NC(=O)c2ccc(Cl)s2)CCCSC/C=C/CSCCN1 [compound 36] ?
Result block: 3459884

Numbers sourced from paper PMC11062899.
